Entries annotated with measured LD50 at 336 h
# assayProtocol: Acute toxicity in the mouse after intravenous administration
# conditions: in vivo, i.v., mice, observed 14 days
Counter-ions that a name gives are not always drawn.
Please state the figure in mg/kg; there is no need to write the unit.

Example entries and their recorded answers appear below.
CCN1CCCC1CNC(=O)c1cc(F)c(N)c(Cl)c1 (centres unmarked)    28.5
CCN1CCCC1CNC(=O)c1cc(C)cc(Cl)c1N (centres unmarked)    28.6
CCN1CCCC1CNC(=O)c1cc([N+](=O)[O-])cc(Cl)c1N (centres unmarked)    39
CCN1CCCC1CNC(=O)c1cc(Br)cc(Cl)c1N (centres unmarked) [E, hydrochloride]    25
CCN1CCCC1CNC(=O)c1cc(Cl)c(N)c(C(F)(F)F)c1 (centres unmarked) [J, hydrochloride]    33.5

## Task Let me know recorded LD50 at 336 h for CCN1CCCC1CNC(=O)c1cc(Cl)cc(Cl)c1N (centres unmarked) [D, hydrochloride] , thanks.
## Result 31.5

## Task Recall and state the measured LD50 at 336 h for CCN1CCCC1CNC(=O)c1cc(Cl)cc(C(F)(F)F)c1N (centres unmarked) [I, hydrochloride] .
## Result 52.5

## Task Indicate its recorded LD50 at 336 h; the compound in question is Cl.Nc1ccc(C(=O)NCc2ccccc2)c(Cl)c1
## Result 48

Source listed as patent US4093734A.
